Examples of binders with documented V/K follow.
# Assayed Target: extracellular signal-regulated protein kinase 2 (purified, recombinant, activated ERK2)
# Sequence (P28482 2-360): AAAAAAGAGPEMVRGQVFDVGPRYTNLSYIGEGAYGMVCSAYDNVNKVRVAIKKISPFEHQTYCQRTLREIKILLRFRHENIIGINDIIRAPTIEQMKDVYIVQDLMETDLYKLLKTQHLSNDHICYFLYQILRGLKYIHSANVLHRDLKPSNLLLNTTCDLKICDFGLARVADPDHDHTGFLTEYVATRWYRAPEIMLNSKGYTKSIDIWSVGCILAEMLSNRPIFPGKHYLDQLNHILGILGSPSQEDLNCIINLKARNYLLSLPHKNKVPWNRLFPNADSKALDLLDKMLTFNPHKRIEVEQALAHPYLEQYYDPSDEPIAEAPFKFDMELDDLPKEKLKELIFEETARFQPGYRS
# Experiment Description: cell-based or functional assay
// no unit string in output, number only

Field: example entries. Status: answers known.
{"Binder": "ATGPLSPFGRR [ERKtide]", "V/K": 136}
{"Binder": "EAIMSPRFK [type 1 human TH-Ser31 peptide EAIMSPRFK]", "V/K": 28}

Challenge: # V/K lookup, item YQAEAIMSPRFIGRRQ [type 1 human TH-Ser31 peptide YQAEAIMSPRFIGRRQ]
Response given: 80

Challenge: # V/K lookup, item APRTPGGR [MBPtide (Thr97) …]
Response given: 23

Challenge: # V/K lookup, item KQAEAVTSPR [rat TH-Ser31 peptide KQAEAVTSPR]
Response given: 5
